Taken from paper PMC10779950.

Reported pIC50 values follow for various compounds
Target: SHP2^WT (1–593) (Homo sapiens, UniProt Q06124)
Construct: made in house; host or cells: E. coli BL21 Star (DE3), pET30 vector
Sequence (Q06124 whole entry): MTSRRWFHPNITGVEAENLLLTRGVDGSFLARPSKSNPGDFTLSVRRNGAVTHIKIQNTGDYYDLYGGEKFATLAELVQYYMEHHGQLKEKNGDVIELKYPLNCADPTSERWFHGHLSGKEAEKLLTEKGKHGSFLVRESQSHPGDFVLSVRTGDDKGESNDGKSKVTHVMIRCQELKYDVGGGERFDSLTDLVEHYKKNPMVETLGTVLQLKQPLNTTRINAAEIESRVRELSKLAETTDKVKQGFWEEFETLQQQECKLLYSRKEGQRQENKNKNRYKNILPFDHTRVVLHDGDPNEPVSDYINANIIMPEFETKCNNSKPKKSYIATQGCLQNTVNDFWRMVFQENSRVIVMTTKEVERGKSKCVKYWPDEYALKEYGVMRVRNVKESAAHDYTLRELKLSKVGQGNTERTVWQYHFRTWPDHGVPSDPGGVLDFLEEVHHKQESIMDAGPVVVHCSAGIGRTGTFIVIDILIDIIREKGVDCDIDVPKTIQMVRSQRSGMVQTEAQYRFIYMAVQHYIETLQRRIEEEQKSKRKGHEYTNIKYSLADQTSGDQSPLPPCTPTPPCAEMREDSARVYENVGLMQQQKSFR
Assay: SHP-2 prompt fluorescence phosphatase assay (DiFMUP), SHP2^WT
Format: biochemical
Conditions: SHP-2_case sheet; from experimental IC50

Examples with their reported pIC50 follow.
# compound, observationType, val
data = [
    ("Nc1cc(N2CCC3(CCCC3N)CC2)cnc1Sc1cccc(Cl)c1Cl (centres unmarked) [A-S8]", "pIC50", 5.64),
    ("Nc1cc(NCC2CCCNC2)cnc1-c1cccc(Cl)c1Cl (centres unmarked) [A-S2]", "pIC50", 4.8066),
    ("CC1(N)CCN(c2cnc(-c3ccnc(Cl)c3Cl)c(N)c2)CC1 [A-S6]", "pIC50", 4.973),
    ("CC1(N)CCN(c2cnc(-c3cccc(F)c3Cl)c(N)c2)CC1 [A-S5]", "pIC50", 4.821),
    ("Nc1cc(NC2CCNC2)cnc1-c1cccc(Cl)c1Cl (centres unmarked) [A-S3]", "pIC50", 5.286),
]

Request: Can you share its pIC50? I mean this compound: Nc1cc(NC2CCNCC2)cnc1-c1cccc(Cl)c1Cl [A-S4]
Response: 4.629

Request: pIC50 for CC1(N)CCN(c2cnc(Sc3cccc(Cl)c3Cl)c(N)c2)CC1 [A-S7] ?
Response: 4.949

Request: Consider the compound shown here: CC1(N)CCN(c2cnc(-c3cccc(Cl)c3Cl)c(N)c2)CC1 [A-S1] What is its recorded pIC50?
Response: 5.826
